Listed below: z-score of prototroph abundance values for each entry.
Tested on: Saccharomyces cerevisiae BY4741 SeMeCo community
Assay: z-score of prototroph abundance vs DMSO median; higher = larger share of this subpopulation than in DMSO controls
Details: 10 µM; 24 h; SM minimal medium; subpopulation (auxotrophy): Prototroph
Counter-ions that a name gives are not always drawn.
Just the number, please, no unit after it.

{"compound": "CC(C)COc1ccc(CNC(=O)N(Cc2ccc(F)cc2)C2CCN(C)CC2)cc1 [Pimavanserin]", "studyTarget": "Saccharomyces cerevisiae BY4741 SeMeCo community", "z-score of prototroph abundance": -0.05}
{"compound": "CN1CC2c3ccccc3Oc3ccc(Cl)cc3C2C1 (configuration not stated) [Asenapine maleate]", "studyTarget": "Saccharomyces cerevisiae BY4741 SeMeCo community", "z-score of prototroph abundance": 0.14}
{"compound": "OC1(c2ccc(Cl)c(C(F)(F)F)c2)CCN(CCCC(c2ccc(F)cc2)c2ccc(F)cc2)CC1 [Penfluridol]", "studyTarget": "Saccharomyces cerevisiae BY4741 SeMeCo community", "z-score of prototroph abundance": -1.64}
{"compound": "COc1ccnc(C[S+]([O-])c2nc3cc(-n4cccc4)ccc3[nH]2)c1C (configuration not stated) [Ilaprazole sodium]", "studyTarget": "Saccharomyces cerevisiae BY4741 SeMeCo community", "z-score of prototroph abundance": -0.81}

Data request: Given the entry COc1ccc(CN2CCN(C(c3ccc(F)cc3)c3ccc(F)cc3)CC2)c(OC)c1OC [Lomerizine 2HCl] , report its measured z-score of prototroph abundance.
Data returned: -0.1

Data request: Given the entry CN(C/C=C/C#CC(C)(C)C)Cc1cccc2ccccc12 [Terbinafine HCl] , report its measured z-score of prototroph abundance.
Data returned: -0.62

Data request: Given the entry CCOC(=O)C1=C(C)NC(C)=C(C(=O)OC)C1c1cccc([N+](=O)[O-])c1 (configuration not stated) [Nitrendipine] , report its measured z-score of prototroph abundance.
Data returned: 0.18

Data request: Given the entry NCc1ccccc1CC(=O)N[C@@H]1C(=O)N2C(C(=O)O)=C(CSc3nnnn3CC(=O)O)CS[C@H]12 [Ceforanide] , report its measured z-score of prototroph abundance.
Data returned: -0.53

Data request: Given the entry Cc1cccc(Nc2ccccc2C(=O)O)c1C [Mefenamic Acid] , report its measured z-score of prototroph abundance.
Data returned: 0.48

Data request: Given the entry CN(C)CCn1nnnc1SCC1=C(C(=O)O)N2C(=O)[C@@H](NC(=O)Cc3csc(N)n3)[C@H]2SC1 [Cefotiam hydrochloride] , report its measured z-score of prototroph abundance.
Data returned: -1.4

Data request: Given the entry C[C@H](Nc1ncnc2nc[nH]c12)c1cc2cccc(Cl)c2c(=O)n1-c1ccccc1 [Duvelisib (IPI-145, INK1197)] , report its measured z-score of prototroph abundance.
Data returned: -0.55

Data request: Given the entry COCCOC(=O)C1=C(C)NC(C)=C(C(=O)OC(C)C)C1c1cccc([N+](=O)[O-])c1 (configuration not stated) [Nimodipine] , report its measured z-score of prototroph abundance.
Data returned: 0.04

Data request: Given the entry Clc1ccccc1C(c1ccccc1)(c1ccccc1)n1ccnc1 [Clotrimazole] , report its measured z-score of prototroph abundance.
Data returned: -9.07

Data request: Given the entry CNCCC(Oc1ccc(C(F)(F)F)cc1)c1ccccc1 (configuration not stated) [Fluoxetine HCl] , report its measured z-score of prototroph abundance.
Data returned: 0.06
